# System: SERPINE1prom-Luc reporter in NAMEC8 cells
# Assay protocol: Dual-Glo luciferase assay of SERPINE1prom-Luc reporter (FF/Ren)
# Type: cell-based, human
# Test settings: primary screen; NAMEC8-SERPINE1prom-Luc cells grown 3 days with compound; relative to DMSO
# Protocol: pGreenFire1-mCMV was cut using ClaI and SpeI and gel purified. […] Stock plates of compound libraries were kindly prepared by GIS CHiP facility at 1 mM concentration in DMSO. […] Cells were then grown for 3 days and promoter-luciferase activity was measured using the Dual-Glo Luciferase System (Promega). Assay was carried out according to manufacturer's instructions. […] Promoter luciferase activity is then calculated by taking Firefly luciferase over Renilla luciferase.
Observable: Avr FF/Renilla from DMSO
Please give the numeric answer without any surrounding text.

Some molecules with recorded Avr FF/Renilla from DMSO:
• CCCCCCCCCCCCC/C=C/[C@@H](O)[C@H](CO)NC(=O)CCCCCCC [C-8 Ceramide] = 0.54
• O=C(O)CCC/C=C\C[C@H]1C(=O)C=C[C@@H]1/C=C/[C@@H](O)COc1ccccc1 = 0.59
• CN([C@@H](Cc1ccc(OS(=O)(=O)c2cccc3cnccc23)cc1)C(=O)N1CCN(c2ccccc2)CC1)S(=O)(=O)c1cccc2cnccc12 = 0.43

Request: Quick one: Avr FF/Renilla from DMSO for COc1ccc(Br)cc1S(=O)(=O)NC(=O)/C=C/c1ccccc1Cc1ccc2ccccc2c1 ?
Response: 0.13

Request: Entry CCCCC(C)(C)[C@H](O)/C=C/[C@H]1C(=O)C[C@H](O)[C@@H]1C/C=C\CCCC(=O)O [16,16-dimethyl Prostaglandin D2] : reported Avr FF/Renilla from DMSO = ?
Response: 0.48

Request: Requested field: Avr FF/Renilla from DMSO. Item: CCN(CC)CCCCNc1ncc2cc(-c3c(Cl)cccc3Cl)c(NC(=O)NC(C)(C)C)nc2n1
Response: 0.39

Request: Fill in the blank: the reported Avr FF/Renilla from DMSO of CCCCC[C@H](O)/C=C/[C@H]1C(=O)C[C@H](O)[C@@H]1C/C=C\CCCC(=O)NCCO [Prostaglandin D2 Ethanolamide] is ____.
Response: 0.55

This collection of values is drawn from patent US12667546B2.
